# credit: the supplement of paper PMC9112550

# Test system: Escherichia coli TOP10;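 note: peptides expressed intracellularly from a pBAD plasmid library in pooled LB shake-flask culture, induced with 0.3% L-arabinose, DNA abundance read by NGS, three biological replicates, DESeq2 with apeglm shrinkage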
# test details: shrunken log2 fold change of peptide-encoding DNA abundance (4.5 h post-induction vs induction); higher = less antimicrobial activity (less host growth inhibition)
# test conditions: time post-induction: 4.5 h; library: site-saturation at positions 5, 18, 19, 20
// reported shrunken log2 fold change for each item listed
// print number alone

[[record]]
seq_string = "RRIRHRPPRLPRPRPRPTRWPRP"
endpoint_label = "shrunken log2 fold change"
result = 0.137

[[record]]
seq_string = "RRIRHRPPRLPRPRPRPVGLPRP"
endpoint_label = "shrunken log2 fold change"
result = 0.119

[[record]]
seq_string = "RRIRSRPPRLPRPRPRPYTDPRP"
endpoint_label = "shrunken log2 fold change"
result = -1.11

[[record]]
seq_string = "RRIRLRPPRLPRPRPRPNIYPRP"
endpoint_label = "shrunken log2 fold change"
result = -0.585

[[record]]
seq_string = "RRIRMRPPRLPRPRPRPVAAPRP"
endpoint_label = "shrunken log2 fold change"
result = 2.1

[[record]]
seq_string = "RRIRRRPPRLPRPRPRPKGCPRP"
endpoint_label = "shrunken log2 fold change"
result = 0.0288


Give the measured shrunken log2 fold change of `RRIRTRPPRLPRPRPRPVILPRP` .
-0.994

Give the measured shrunken log2 fold change of `RRIRARPPRLPRPRPRPCFFPRP` .
0.145
